Ki for assorted compounds
Target: Recombinant human JAK2 kinase domain protein (Residues 812-1132) (Homo sapiens)
Sequence (O60674 812-1132): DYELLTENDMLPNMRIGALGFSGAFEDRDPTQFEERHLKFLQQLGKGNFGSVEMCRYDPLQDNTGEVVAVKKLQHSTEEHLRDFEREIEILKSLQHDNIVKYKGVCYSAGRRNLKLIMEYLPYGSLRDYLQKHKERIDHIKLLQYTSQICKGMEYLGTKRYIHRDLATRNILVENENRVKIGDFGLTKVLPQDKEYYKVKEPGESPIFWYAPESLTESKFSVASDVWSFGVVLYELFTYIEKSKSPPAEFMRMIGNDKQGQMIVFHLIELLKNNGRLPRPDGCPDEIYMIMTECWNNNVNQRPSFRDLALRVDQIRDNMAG
Assay: JAK2 biochemical assay (LabChip mobility shift, Ki)
Details: Biochem JAK2 Ki
Numbers only here, please. The scale is nM.

{"columns": ["COMPOUND", "Ki (nM)"],
 "data": [
  ["Cn1cc(NC(=O)c2cnn3cccnc23)c(-c2cc(Oc3ccc(C(N)=O)cc3)ccc2OC(F)F)n1", 0.23],
  ["Cn1cc(NC(=O)c2cnn3cccnc23)c(-c2cc(Oc3cccc([C@H]4COCCN4)c3)ccc2OC(F)F)n1 (stereo in doubt)", 0.43],
  ["Cn1cc(NC(=O)c2cnn3cccnc23)c(-c2cc(Oc3cc(C4CC4)cc(C4(O)CNC4)c3)ccc2OC(F)F)n1", 0.58],
  ["CNCCn1cc(NC(=O)c2cnn3cccnc23)c(-c2cc(Oc3ccccc3)ccc2OC(F)F)n1", 0.41]
]}

Q: // map "Cn1cc(NC(=O)c2cnn3cccnc23)c(-c2cc(Oc3cccc(CN4CCOCC4)c3)ccc2OC(F)F)n1" to recorded Ki (system: Recombinant human JAK2 kinase domain protein (Residues 812-1132) (Homo sapiens))
A: 1.6

Q: // map "N#CCc1cccc(Oc2ccc(OC(F)F)c(-c3n[nH]cc3NC(=O)c3cnn4cccnc34)c2)c1" to recorded Ki (system: Recombinant human JAK2 kinase domain protein (Residues 812-1132) (Homo sapiens))
A: 0.21

Q: // map "COC1(c2cccc(Oc3ccc(OC(F)F)c(-c4nn(C)cc4NC(=O)c4cnn5cccnc45)c3)c2)CN(C)C1" to recorded Ki (system: Recombinant human JAK2 kinase domain protein (Residues 812-1132) (Homo sapiens))
A: 0.88

Q: // map "Cn1cc(NC(=O)c2cnn3cccnc23)c(-c2cc(Oc3cccc(C4(F)CNC4)c3)ccc2OC(F)F)n1" to recorded Ki (system: Recombinant human JAK2 kinase domain protein (Residues 812-1132) (Homo sapiens))
A: 0.26

Q: // map "O=C(Nc1c[nH]nc1-c1cc(Oc2cccc(OCC(F)(F)F)c2)ccc1OC(F)F)c1cnn2cccnc12" to recorded Ki (system: Recombinant human JAK2 kinase domain protein (Residues 812-1132) (Homo sapiens))
A: 0.7

Q: // map Cn1cc(NC(=O)c2cnn3cccnc23)c(-c2cc(Oc3cnn(C4CCC4O)c3)ccc2OC(F)F)n1 (stereo not drawn) [Example 134] to recorded Ki (system: Recombinant human JAK2 kinase domain protein (Residues 812-1132) (Homo sapiens))
A: 0.26

Q: // map Cn1cc(NC(=O)c2cnn3cccnc23)c(-c2cc(Oc3cnn(CC4(O)CN5CCC4CC5)c3)ccc2OC(F)F)n1 (stereo not drawn) [Example 200] to recorded Ki (system: Recombinant human JAK2 kinase domain protein (Residues 812-1132) (Homo sapiens))
A: 1.6

Q: // map "NCc1cc(Oc2ccc(OC(F)F)c(-c3n[nH]cc3NC(=O)c3cnn4cccnc34)c2)ccc1C(F)(F)F" to recorded Ki (system: Recombinant human JAK2 kinase domain protein (Residues 812-1132) (Homo sapiens))
A: 2.3

Q: // map "Cc1c(Oc2ccc(OC(F)F)c(-c3nn(C)cc3NC(=O)c3cnn4cccnc34)c2)cnn1C" to recorded Ki (system: Recombinant human JAK2 kinase domain protein (Residues 812-1132) (Homo sapiens))
A: 0.3

Q: // map "Cc1ccc(Oc2ccc(OC(F)F)c(-c3n[nH]cc3NC(=O)c3cnn4cccnc34)c2)cc1" to recorded Ki (system: Recombinant human JAK2 kinase domain protein (Residues 812-1132) (Homo sapiens))
A: 0.14

Q: // map CN1CCCC(O)(Cn2cc(Oc3ccc(OC(F)F)c(-c4nn(C)cc4NC(=O)c4cnn5cccnc45)c3)cn2)C1 (stereo not drawn) [Example 193] to recorded Ki (system: Recombinant human JAK2 kinase domain protein (Residues 812-1132) (Homo sapiens))
A: 2.3
